System tested: T1, recombinant human RON SEMA and PSI domains (human, UniProt Q04912 25-571)
T1 construct: domain: SEMA+PSI; Commercial protein (R&D Systems); also called rhRON SEMA+PSI; hRON SEMA+PSI
Assay method text: SPR, purified Ab captured on anti-human IgG Fc, 25 C
Measured property: koff
Remember to follow the number with its unit.

Example entries and their recorded answers appear below.
Binder	koff
Sh07F01-62 (antibody, human IgG1, kappa, V domains shown, Humanized, human IgG1/kappa: Sh07F01 Hv3-48 D28T T60A L63V E65G IgG1 + HE L 07F01 Kv1-9 Kappa) VH: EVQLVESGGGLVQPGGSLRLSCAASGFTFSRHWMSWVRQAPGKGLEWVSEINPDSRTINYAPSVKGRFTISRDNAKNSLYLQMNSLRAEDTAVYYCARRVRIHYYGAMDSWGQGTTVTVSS VL: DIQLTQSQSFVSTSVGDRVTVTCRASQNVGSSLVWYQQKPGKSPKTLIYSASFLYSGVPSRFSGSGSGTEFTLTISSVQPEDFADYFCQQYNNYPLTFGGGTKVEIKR	0.00016 s⁻¹
Sh07F01-43 (antibody, human IgG1, kappa, V domains shown, Humanized, human IgG1/kappa: Sh07F01 Hv3-48 IgG1 + HE L 07F01 Kv1-9 Kappa) VH: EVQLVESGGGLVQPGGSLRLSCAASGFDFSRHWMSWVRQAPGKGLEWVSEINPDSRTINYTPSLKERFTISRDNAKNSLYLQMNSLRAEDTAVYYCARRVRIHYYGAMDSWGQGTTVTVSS VL: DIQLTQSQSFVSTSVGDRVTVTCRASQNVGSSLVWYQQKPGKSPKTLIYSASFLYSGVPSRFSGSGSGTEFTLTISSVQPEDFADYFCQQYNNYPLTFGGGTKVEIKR	0.00011 s⁻¹
Sh07F01-69 (antibody, human IgG1, kappa, V domains shown, Humanized, human IgG1/kappa: Sh07F01 Hv3-48 IgG1 + Sh07F01 Kv1-9 F1 Kappa) VH: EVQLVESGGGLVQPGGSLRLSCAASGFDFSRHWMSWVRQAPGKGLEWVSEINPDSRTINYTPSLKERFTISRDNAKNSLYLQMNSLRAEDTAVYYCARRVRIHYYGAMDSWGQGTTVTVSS VL: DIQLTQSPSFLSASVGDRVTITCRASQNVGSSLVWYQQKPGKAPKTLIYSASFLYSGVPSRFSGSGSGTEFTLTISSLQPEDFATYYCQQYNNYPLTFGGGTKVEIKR	0.00014 s⁻¹
Sh07F01-83 (antibody, human IgG1, kappa, V domains shown, Humanized, human IgG1/kappa: Sh07F01 Hv3-48 D28T T60A L63V E65G IgG1 + Sh07F01 Kv1-9 F1 Kappa) VH: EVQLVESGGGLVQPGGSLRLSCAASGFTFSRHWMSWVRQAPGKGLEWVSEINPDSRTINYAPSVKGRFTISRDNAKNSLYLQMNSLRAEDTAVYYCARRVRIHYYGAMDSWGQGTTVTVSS VL: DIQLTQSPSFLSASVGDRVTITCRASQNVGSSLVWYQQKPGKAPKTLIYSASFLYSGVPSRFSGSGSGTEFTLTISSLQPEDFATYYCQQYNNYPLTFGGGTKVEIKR	0.00018 s⁻¹
Sh07F01-2 (antibody, human IgG1, kappa, V domains shown, also called Chimeric 07F01 C102S) VH: EVKLLESGGGLVQPGGSLKLSCAASGFDFSRHWMSWVRLAPGKGLEWIAEINPDSRTINYTPSLKEKFIISRDNAKNSLFLQMNRVRSEDTALYYCARRVRIHYYGAMDSWGQGTSVTVSS VL: DIVLTQSQKIVSTSVGARVSVTCKASQNVGSSLVWYQQKPGQSPKTLIYSASFRYSGVPDRFTGSGSGTDFTLTISNVQSEDLADYFCQQYNNYPLTFGAGTKLELKR	9.8e-05 s⁻¹
Sh29B06-23 (antibody, human IgG1, kappa, V domains shown, Humanized, human IgG1/kappa: Hu29B06 Hv4-59 IgG1 (CDR graft with back mutations) + Sh29B06 Kv2-28 Kappa) VH: QVQLQESGPGLVKPSETLSLTCTVSGDSITSGYWNWIRKPPGKKLEYMGYISYSGKTYYNPSLKSRITISRDTSKNQYSLKLSSVTAADTAVYYCARSKYDYAMDYWGQGTLVTVSS VL: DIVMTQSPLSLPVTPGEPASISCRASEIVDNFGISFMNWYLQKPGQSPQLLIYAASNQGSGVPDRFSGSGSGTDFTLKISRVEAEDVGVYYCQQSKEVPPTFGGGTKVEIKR	9.5e-05 s⁻¹

With those in mind, consider the next binder.
Q) Please indicate koff recorded for Sh29B06-78 (antibody, human IgG1, kappa, V domains shown, Humanized, human IgG1/kappa: Hu29B06 Hv4-59 D27G T30S M48I I67V Y78F IgG1 + Sh29B06 Kv2-28 Kappa) VH: QVQLQESGPGLVKPSETLSLTCTVSGGSISSGYWNWIRKPPGKKLEYIGYISYSGKTYYNPSLKSRVTISRDTSKNQFSLKLSSVTAADTAVYYCARSKYDYAMDYWGQGTLVTVSS VL: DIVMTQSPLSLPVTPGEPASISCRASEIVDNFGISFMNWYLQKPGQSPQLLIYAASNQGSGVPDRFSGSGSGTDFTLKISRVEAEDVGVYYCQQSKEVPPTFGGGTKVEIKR
A) 3.9e-05 s⁻¹

Values compiled from patent US20120027773A1.
